For each entry below, report its growth inhibition value.
- Assay: NCI Yeast Anticancer Drug Screen. Data for the bub3 strain (AID 167)
- Conditions: S. cerevisiae bub3 mutant strain, at 50.0 µM, stronger effect = higher value
This is part of a sample that, as a whole, favours compounds with a hit. Of some 79,000 tested, about 15% had one in any assay.
Output spec: scalar in %, unitless text.

[in] Report measured growth inhibition; entry is `O=C(/C=C/c1ccccc1Cl)c1ccc(Cl)c(Cl)c1`
[out] 15.4

[in] For the molecule CCOC(CCl)(NC(C)=O)C(=O)OC (stereo unspecified) , give its reported growth inhibition.
[out] 4.3

[in] Annotate the molecule COc1ccc(C(O)/C(=C/n2ccnc2)c2ccccc2)cc1OC (stereo unspecified) with its measured growth inhibition.
[out] -7.65

[in] Consider the molecule `CC(=N\N=C\c1ccccn1)/C(C)=N/N=C(C)/C(C)=N/N=C/c1ccccn1` . State its measured growth inhibition.
[out] 1.95

[in] Let me know recorded growth inhibition for `O=C(O)c1ccccc1/C=N/NC1=NCCCCN1` , thanks.
[out] -7.55

[in] Indicate its recorded growth inhibition; the molecule in question is `COc1ccc2c(=O)c([Se]c3coc4cc(OC)ccc4c3=O)coc2c1`
[out] -23.1

[in] Kindly indicate its recorded growth inhibition. Item: `Cc1nnc2n(c1=O)CCCN2C`
[out] 15.8

[in] Supply growth inhibition value. Item: `C[n+]1c(/C=C/C=C/c2ccccc2)oc2ccccc21`
[out] 5.8

[in] Quickly give me recorded growth inhibition for `C=C(C)c1ccccc1N`
[out] -26.4

[in] Please supply the value of reported growth inhibition for the item `CN(CCCCl)Cc1ccccc1`
[out] -14.3

[in] Please report the measured growth inhibition for `CNCCCN1CCCCC1`
[out] -4.4

[in] Quote growth inhibition reported for `Cc1n[nH]c(=S)n1NC=O` please.
[out] -4.95

[in] Read off the recorded growth inhibition for `CCCCOC(=O)c1ccc(NC(=O)Nc2c(C)cccc2C)cc1`
[out] 30.9

[in] Kindly indicate its recorded growth inhibition. Item: `CCN(CC(=O)O)C(=O)c1cccnc1`
[out] -6.6

[in] Report measured growth inhibition; entry is O=C1NC(Cc2c[nH]c3ccccc23)C(=O)N2CCCC12 (stereo unspecified)
[out] -6.3

[in] Entry `COc1ccc2c(C)cc(N/N=C(\C)c3cn(C)n(-c4ccccc4)c3=O)nc2c1` needs its growth inhibition filled in; supply it.
[out] -1.8

[in] Supply reported growth inhibition belonging to this molecule: `N#Cc1ccc(Nc2cnc3ccc(N)cc3n2)cc1`
[out] -25.4

[in] Provide growth inhibition value for the following molecule: `CCOC(=O)/C(C#N)=C/c1ccc(C)o1`
[out] 31.1

[in] Indicate its recorded growth inhibition; the molecule in question is `NOCc1nnc(Nc2ccccc2)s1`
[out] -4.4

[in] Given the molecule `COC(=O)C(C)(C)N=CN(C)C` , write its reported growth inhibition.
[out] -27.9

[in] Output growth inhibition of C/C=C(\C)C(C#N)(CCCC)C(=O)OCC (stereo unspecified)
[out] -25.4
